Reported GI50 values are given for each entry in this list.
tested on: SW-620; experiment: NCI tumour cell line growth inhibition, 48 h
Activity calls are given as the source filed them. No stated cut-off is given here; in the data, active = GI50 up to about 1.1 µM and inactive = higher.
observable: GI50

[[record]]
compound = "C=C1C(=O)C23C(O)C1CCC2C12CO[C@]3(O)[C@@H](O)C1C(C)(C)CCC2O (some centres undefined)"
assay_system = "SW-620"
observable = "GI50"
reported_result = "5.81 µM (inactive)"

[[record]]
compound = "COC(=O)C1C(O)C(C)C(O)C(C)/C=C\\C=C(C)C(=O)Nc2c(C)c(OC(C)=O)c3c(c2O)C(=O)C(C)=C2OCOC(=C23)C(C)=CC(C)(O)C(O)C(C)C1O (centres undefined)"
assay_system = "SW-620"
observable = "GI50"
reported_result = "25 µM (inactive)"

[[record]]
compound = "c1ccc2c(c1)nnn1c3cnccc3nc21"
assay_system = "SW-620"
observable = "GI50"
reported_result = "32.4 µM (inactive)"

[[record]]
compound = "O=C1Nc2c(Cl)cc(Cl)cc2/C1=N/N=C/c1ccccc1O"
assay_system = "SW-620"
observable = "GI50"
reported_result = "22 µM (inactive)"

[[record]]
compound = "C/C(=N\\Oc1cc(Cl)ncn1)c1ccccn1"
assay_system = "SW-620"
observable = "GI50"
reported_result = "84.7 µM (inactive)"

[[record]]
compound = "COc1ccc2nc3cc(Cl)ccc3c(Nc3ccccc3-c3ccccc3Nc3c4ccc(Cl)cc4nc4ccc(OC)cc34)c2c1"
assay_system = "SW-620"
observable = "GI50"
reported_result = "15.4 µM (inactive)"

[[record]]
compound = "CCN(CC)c1nnc(CCCCCCCCc2nnc(N(CC)CC)o2)o1"
assay_system = "SW-620"
observable = "GI50"
reported_result = "> 100 µM (inactive)"

[[record]]
compound = "CSc1nc(-c2ccc(Cl)cc2)c(C#N)c(=O)n1C1OC(COC(C)=O)C(OC(C)=O)C(OC(C)=O)C1OC(C)=O (centres undefined)"
assay_system = "SW-620"
observable = "GI50"
reported_result = "> 100 µM (inactive)"

[[record]]
compound = "CCOC(=O)C1C2C1C1C(C(=O)OCC)C21 (centres undefined)"
assay_system = "SW-620"
observable = "GI50"
reported_result = "> 100 µM (inactive)"


----------
system: SR; experiment: NCI tumour cell line growth inhibition, 48 h
The source made the active and inactive calls. No stated cut-off is given here; in the data, active = GI50 up to about 1.1 µM and inactive = higher.
Classes used: active, inactive

[[record]]
molecule = "O=C(Nc1nc2ccccc2s1)c1cc([N+](=O)[O-])ccc1Cl"
assay_system = "SR"
classification = "inactive"

[[record]]
molecule = "CC1c2ccccc2Cn2cc3c(c21)C(=O)c1cccc(OP(=O)(O)OCc2ccccc2)c1C3=O (stereo not drawn)"
assay_system = "SR"
classification = "inactive"

[[record]]
molecule = "Cn1c(=O)c2[nH]c(/N=N\\n3ccc4ccccc43)nc2n(C)c1=O"
assay_system = "SR"
classification = "inactive"

[[record]]
molecule = "CC(=O)OCc1nnn2c1CCC2"
assay_system = "SR"
classification = "inactive"

[[record]]
molecule = "O=C1NC(Nc2ccccc2)=NC(C(F)(F)F)(C(F)(F)F)N1"
assay_system = "SR"
classification = "inactive"

[[record]]
molecule = "CC(C)Oc1cccc(N2C(Nc3ccccc3)=Nc3ccncc3S2(=O)=O)c1"
assay_system = "SR"
classification = "inactive"

[[record]]
molecule = "CC(=O)[C@@]1(O)CC[C@H]2[C@@H]3C[C@H](C)C4=CC(=O)CC[C@]4(C)[C@H]3[C@@H](O)C[C@@]21C"
assay_system = "SR"
classification = "inactive"

[[record]]
molecule = "CSC(=NC1=NC(C(F)(F)F)(C(F)(F)F)N=C(c2ccccc2)O1)SC"
assay_system = "SR"
classification = "inactive"

[[record]]
molecule = "O=C1OCC2OC(=O)c3cc(O)c(O)c(O)c3-c3c(O)c(O)c(O)c4c3C(=O)OC(C2OC(=O)c2cc(O)c(O)c(O)c2-c2c1cc(O)c(O)c2O)C1OC(=O)C2C4=C(O)C(=O)C23Oc2cc(O)c4c(c2[C@H]13)O[C@H](c1ccc(O)c(O)c1)[C@@H](O)C4 (stereo partly drawn)"
assay_system = "SR"
classification = "inactive"

[[record]]
molecule = "COc1c(CC(=O)c2ccccc2)c2ccccc2n1C(C)=O"
assay_system = "SR"
classification = "inactive"

[[record]]
molecule = "C/C(=N\\NC(N)=O)C(CN1CCOCC1)C(c1ccccc1)c1c(O)c2ccccc2oc1=O (stereo not drawn)"
assay_system = "SR"
classification = "inactive"

[[record]]
molecule = "O=C(Cn1c(C(=O)/C=C/c2ccc(Cl)cc2)nc2ccccc21)c1ccc(Cl)cc1"
assay_system = "SR"
classification = "inactive"

[[record]]
molecule = "CCC(CCC(C)C1CCC2C3CC=C4CC(OC5OC(CO)C(O)C(O)C5O)CCC4(C)C3CCC12C)C(C)C (stereo not drawn)"
assay_system = "SR"
classification = "inactive"

[[record]]
molecule = "COc1cc2c(cc1OC)C(Cc1ccc(Oc3cc(CC4c5cc(OC)c(OC)cc5CCN4C)ccc3O)cc1)N(C)CC2 (stereo not drawn)"
assay_system = "SR"
classification = "inactive"

[[record]]
molecule = "Oc1ccc(C2Oc3cc(O)cc4c3C2c2cc(O)cc3c2C(c2cc(O)cc5c2C4C(c2ccc(O)cc2)O5)C(c2ccc(O)cc2)O3)cc1 (stereo not drawn)"
assay_system = "SR"
classification = "inactive"

[[record]]
molecule = "O=[N+]([O-])c1oc2ccc3ccccc3c2c1CCO"
assay_system = "SR"
classification = "active"

[[record]]
molecule = "COC(=O)Cc1c2n(c3ccccc13)C(=O)N1c3ccccc3C(CC(=O)OC)C21 (stereo not drawn)"
assay_system = "SR"
classification = "inactive"

[[record]]
molecule = "COC(=O)C1(C)CCCC2(C)c3cc(OC)ccc3C(=O)C(Br)C12 (stereo not drawn)"
assay_system = "SR"
classification = "inactive"


----------
tested on: U-251; assay: NCI tumour cell line growth inhibition, 48 h
Active and inactive are the calls of the source. No stated cut-off is given here; in the data, active = GI50 up to about 1.1 µM and inactive = higher.
observable: GI50

[[record]]
compound = "COC(=O)NC(Nc1ccccn1)(C(F)(F)F)C(F)(F)F"
assay_system = "U-251"
reported_result = "> 100 µM (inactive)"

[[record]]
compound = "CCOc1ncn(-c2ccc(NC(=S)Nc3cnccn3)cc2)n1"
assay_system = "U-251"
reported_result = "> 10 µM (inactive)"

[[record]]
compound = "COc1ccc(C2=NN(C(=O)c3ccccc3)C(O)(c3cc(F)c(Cl)cc3Cl)C2)cc1OC (centres undefined)"
assay_system = "U-251"
reported_result = "32.4 µM (inactive)"

[[record]]
compound = "CC(C)(C)c1cc(C(O)(C(F)(F)F)C(F)(F)F)c2c(c1)C(C(F)(F)F)(C(F)(F)F)OC(c1ccccc1)(C(C)(C)C)N2 (centres undefined)"
assay_system = "U-251"
reported_result = "3.3 µM (inactive)"


----------
system: RPMI-8226; test: NCI tumour cell line growth inhibition, 48 h
Active and inactive are the calls of the source. Rule as the data show it: active = GI50 up to about 1.1 µM and inactive = higher.
Classes used: active, inactive

[[record]]
compound = "Oc1ccc(C2Oc3cc(O)cc4c3C2c2cc(O)cc3c2C(c2cc(O)cc5c2C4C(c2ccc(O)cc2)O5)C(c2ccc(O)cc2)O3)cc1 (centres undefined)"
classification = "inactive"

[[record]]
compound = "CCc1ccccc1NC(=O)C(=O)C(C#N)c1ccccc1Cl (centres undefined)"
classification = "inactive"

[[record]]
compound = "CCCCCCCCCCCCCP(=O)(O)NCC(N)=O"
classification = "inactive"

[[record]]
compound = "CCOC(=O)/C=C/C(=O)O/C=C/[N+](=O)[O-]"
classification = "inactive"

[[record]]
compound = "CCc1nc(N)nc(N)c1-c1ccc2c(c1)nnn2CCc1ccccc1"
classification = "inactive"

[[record]]
compound = "CC(=O)O/C(=C1\\C[C@H]2[C@@H]3CC=C4C[C@@H](OC(C)=O)CC[C@]4(C)[C@H]3CC[C@]2(C)C1=O)C(F)(F)F"
classification = "inactive"

[[record]]
compound = "O=C1C(O)=C(C(CCc2ccccc2)C2=C(O)C(=O)c3ccccc3C2=O)C(=O)c2ccccc21"
classification = "inactive"

[[record]]
compound = "COc1ccc(/C=N/NC(=O)NCCNCCO)cc1"
classification = "inactive"

[[record]]
compound = "CC1(C)OCC(C2OC3OC(C)(C)OC3C2N)O1 (centres undefined)"
classification = "inactive"

[[record]]
compound = "O=C1Nc2ccc(S(=O)(=O)O)cc2/C1=C1/Nc2ccc(Br)cc2C1=O"
classification = "inactive"

[[record]]
compound = "Cc1ccc(C(=O)O)c(/C=C2\\Cc3ccc(C)cc3C2=O)c1"
classification = "inactive"

[[record]]
compound = "N=C(N)NS(=O)(=O)c1ccc(NCc2cccc3c(=O)c4ccc(Cl)cc4oc23)cc1"
classification = "inactive"

[[record]]
compound = "COc1ccc2c(c1)C(=O)/C(=C/c1ccccc1)C2"
classification = "inactive"

[[record]]
compound = "OCCN(CCO)c1ncnc2c1sc(=S)n2-c1ccccc1"
classification = "inactive"

[[record]]
compound = "CC1=NN(c2ccc(S(=O)(=O)O)cc2)C2(C1)SCC(=O)N2c1nc2ccccc2s1 (centres undefined)"
classification = "inactive"

[[record]]
compound = "O=C(N/N=C(COc1ccc([N+](=O)[O-])cc1)\\N=C\\c1ccncc1)c1ccncc1"
classification = "inactive"

[[record]]
compound = "Cc1ccc(S(=O)(=O)Nc2nnc(S(N)(=O)=O)s2)cc1"
classification = "inactive"

[[record]]
compound = "CC(=O)O/C=C\\OC1CCCC1"
classification = "inactive"

[[record]]
compound = "Nc1nc(-c2cccnc2)cc(-c2cc(-c3cccnc3)nc(N)n2)n1"
classification = "inactive"

[[record]]
compound = "CN1N=CSC12C(=O)N(c1ccc(Cl)cc1)C(=O)N2c1ccc(Cl)cc1 (centres undefined)"
classification = "inactive"

[[record]]
compound = "COc1cccc(-c2c(-c3ccccc3)[nH]c(C)c2C(=O)ONC(=O)c2ccccc2)c1"
classification = "inactive"

[[record]]
compound = "O=C(N/C(=C\\c1cc(Cl)ccc1Cl)c1nc2c(O)nc(S)nc2[nH]1)c1ccccc1"
classification = "inactive"

[[record]]
compound = "O=C(NNCC(F)(F)F)c1ccncc1"
classification = "inactive"

[[record]]
compound = "Cc1nc(N)c(N2CCN(CN)CC2)c(O)n1"
classification = "inactive"

[[record]]
compound = "CC(=O)Nc1nc(Cl)cc(NCC2(CO)CCC2)n1"
classification = "inactive"

[[record]]
compound = "COC(=O)C1C(O)C(C(=O)OC)C(C)N(C)C1C (centres undefined)"
classification = "inactive"

[[record]]
compound = "c1cnc2c(c1)Nc1cnncc1S2"
classification = "inactive"

[[record]]
compound = "N=C(NNS(=O)(=O)c1ccccc1)Oc1ccc(Br)cc1Br"
classification = "inactive"

[[record]]
compound = "C/C(=N\\NC(N)=O)C(CN1CCOCC1)C(c1ccccc1)c1c(O)c2ccccc2oc1=O (centres undefined)"
classification = "inactive"

[[record]]
compound = "C=CCCCCCCCCC(=O)O"
classification = "inactive"

[[record]]
compound = "CN(C)c1ccc(C=c2c3cc(O)ccc3n3c2cc(-c2ccccc2)[n+]3C)cc1"
classification = "active"

[[record]]
compound = "O=C(Nc1nc2ccccc2s1)c1cc([N+](=O)[O-])ccc1Cl"
classification = "inactive"

[[record]]
compound = "CCOC(=O)C12CCSC1C1(C#N)C(C#N)=CC2(N=P(c2ccccc2)(c2ccccc2)c2ccccc2)n2c(=O)n(-c3ccccc3)c(=O)n21 (centres undefined)"
classification = "inactive"

[[record]]
compound = "CCOC(=O)NC(C(F)(F)F)(C(F)(F)F)P(=O)(OCC(C)C)OCC(C)C"
classification = "inactive"


Data origin, for the record: ChEMBL document CHEMBL1201862
